Read-out: Interleukin-1 alpha (IL1a), IL1A (gene 3552)
Assay: BSK_BE3C_IL1a: BioMAP Diversity Plus: BE3C Assay for Interleukin-1 alpha (IL1a) Biomarker Activity (AID 2283016)
Conditions: primary human bronchial epithelial cells; actives raise or lower the signal
The source made the active and inactive calls. The calls were made as follows: active = hit-call score of the fitted dose curve at least 0.9, where 1 is the maximum; inactive = score below 0.9.
Answer with one of the outcomes given here: yes = active, no = inactive

Which outcome did this test record for the compound "COC(=O)/C=C\C(=O)OC" ?
no

Which outcome did this test record for the compound CCCCCCCCCC/C=C/C1CC(=O)OC1=O (stereo not drawn) ?
yes

Which outcome did this test record for the compound "Cc1c(C(N)=O)cc([N+](=O)[O-])cc1[N+](=O)[O-]" ?
no

Which outcome did this test record for the compound CCCCCCCCCCC1CO1 (stereo not drawn) ?
yes

Which outcome did this test record for the compound "Cc1cccnc1" ?
no

Which outcome did this test record for the compound CN(C)CCC(c1ccc(Cl)cc1)c1ccccn1 (stereo not drawn) ?
no

Which outcome did this test record for the compound CCCCC(CC)COC(=O)C=Cc1ccc(OC)cc1 (stereo not drawn) ?
no

Which outcome did this test record for the compound CC(C)C1OCCN1CCOC(=O)NCCCCCCNC(=O)OCCN1CCOC1C(C)C (stereo not drawn) ?
no

Which outcome did this test record for the compound "Oc1cccc2ccccc12" ?
no

Which outcome did this test record for the compound "CN(C)c1ccc(C(c2ccccc2)c2ccc(N(C)C)cc2)cc1" ?
yes

Which outcome did this test record for the compound CC(C)CC(=O)CC(C)CC(C)C (stereo not drawn) ?
yes

Which outcome did this test record for the compound "C1CN(CCOCCN2CCOCC2)CCO1" ?
no

Which outcome did this test record for the compound "Sc1nc2ccccc2s1" ?
yes
